- Test system: BT-549 breast
- run-description: NCI tumour cell line growth inhibition, 48 h
The reader will find reported TGI values listed item by item below.

Answered examples (3):
CC(=O)OCC1OC(n2c(=S)[nH]c(-c3ccccc3)c(C#N)c2=O)C(OC(C)=O)C(OC(C)=O)C1OC(C)=O (stereo not given) = > 100 µM
O=C1c2ccccc2C(=O)c2c1ccc1[nH]c(CCl)nc21 = 12.7 µM
CC(=O)CC(=O)c1cc2c(=O)oc(C)cc2oc1=O = > 37.5 µM

Consider the compound shown here: Cc1cccc(N(CCC#N)S(=O)(=O)c2ccccc2)c1 What is its recorded TGI?
> 100 µM

Let us now turn to O=c1nc2c(c(-c3cccc(Cl)c3)[nH]1)COC/C2=C\c1cccc(Cl)c1
> 100 µM

====

- System: HS 578T breast
- run-description: NCI tumour cell line growth inhibition, 48 h
measurement-type: TGI

Consider the following illustrative entries.
Fc1ccc(-c2nn(-c3ccccc3)cc2-c2nc3ccccc3o2)cc1 = 66.5 µM
O=[n+]1c(CBr)c(CBr)n([O-])c2ccccc21 = 45.3 µM
CCOc1ccc2nc(NC(=O)/C(CC(=O)CC(C3=C(O)c4ccccc4CC3=O)c3ccccc3)=N\O)sc2c1 (stereo not given) = > 100 µM

Need TGI, item C[C@@H]1Cc2c([nH]c3ccccc23)[C@@H](c2c(F)cc(/C=C/C(=O)O)cc2F)N1CC(C)(C)F
45.4 µM

====

- System: RXF 393 renal
- run-description: NCI tumour cell line growth inhibition, 48 h
Reported TGI values for a set of compounds

Cc1ccc(C(=O)Nc2ccc(CP(=O)(O)O)cc2)cc1NC(=O)c1cccc(NC(=O)Nc2cccc(C(=O)Nc3cc(C(=O)Nc4ccc(CP(=O)(O)O)cc4)ccc3C)c2)c1 = > 100 µM
NS(=O)(=O)c1ccc(-n2nc(-c3ccc(Br)cc3)ccc2=O)cc1 = > 10 µM
COc1ccc(CNc2nc3ccc(C(F)(F)F)cc3nc2-c2ccccc2)cc1OC = > 100 µM
CCCCCCCCCCCCOC1C(CNCC2OC3OC(C)(C)OC3C2NC(=O)Nc2ccc(C(=O)OCC)cc2)OC2OC(C)(C)OC21 (stereo unspecified) = 4.8 µM
O=C1/C(=C/c2ccc(Br)s2)NC(=S)N1CN1CCOCC1 = 59.7 µM

Which TGI is reported for this compound? c1ccc(N=c2snc(-c3ccccc3)s2)cc1
> 100 µM

Also, O=c1nc2c(c(-c3cccc(Cl)c3)[nH]1)COC/C2=C\c1cccc(Cl)c1 please.
> 100 µM

And for O=C1N[C@@H]2c3c(csc3Br)C(=O)[C@@H]2O1 ?
43.7 µM

What do you have for CC1=C2c3ccccc3N(C(=O)/C=C/C(=O)O)[C@H]2[C@H]2C(=O)OC(=O)[C@H]2C1 ?
> 10 µM

Now the compound COc1cc([C@@H]2c3cc4c(cc3[C@@H](NC(=O)c3cccc([N+](=O)[O-])c3)C3COC(=O)[C@@H]32)OCO4)cc(OC)c1O (stereo partly specified)
9.97 µM

Now the compound Cc1cc(C)c2c(n1)S(=O)(=O)N(CCCN1CCN(c3cccc(C(F)(F)F)c3)CC1)/C(=C(\O)c1ccc(Cl)cc1)C2=O
19.1 µM

// same read-out, input: CN(C)c1ccc(/C=C2\C[N+](C)(C)C/C(=C\c3ccc(N(C)C)cc3)C2=O)cc1
> 77.7 µM

// same read-out, input: CN1CCN(Cc2ccc(NC(=O)c3cncc(C#Cc4cnc(N)c5ccccc45)c3)cc2C(F)(F)F)CC1
0.563 µM

What do you have for O=C1CCC(NC(=O)c2ccccc2)C(=O)N1 (stereo unspecified) ?
> 100 µM

Queued: O=C1/C(=C/c2ccc([N+](=O)[O-])cc2)CNC/C1=C\c1ccc([N+](=O)[O-])cc1
25.1 µM

Entry to check: C1CN2N3CCCC23C1 (stereo unspecified)
> 100 µM

Try CC(=O)OCCc1cccnc1/C=N/O next.
> 100 µM

Ok, now O=C1NC(=O)C2C(=O)NC(=O)C1C2(c1ccccc1)c1ccc(Cl)cc1 (stereo unspecified)
> 100 µM

Can you handle Cc1c(N2C(=O)/C(=C\c3ccccc3O)N=C2c2ccccc2)c(=O)n(-c2ccccc2)n1C next?
> 100 µM

Next compound: O=C1/C(=C/c2ccc(F)cc2)CNC/C1=C\c1ccc(F)cc1
3.41 µM

Entry O=C(N/N=C/c1cccc(O)c1O)N/N=C/c1cccc(O)c1O please
86.4 µM
